Measurement protocol: AUC (infinity) in cynomolgus monkey at 3 mg/kg, po administered via gavage by HPLC-MS analysis
Format: ADME, organism-based, Macaca fascicularis
Parameters: route oral, time infinity, dose 3 mg/kg
Details: in vivo
Attribute measured: AUC(0-inf) (nM·h)
API: value field is a number in nM·h; no unit string.

Data point: CCCC[C@](C)(CO)Nc1nc(N)nc2cc(F)cnc12 ; AUC(0-inf) = 4.7

====

As shown below, each of these compounds has a reported EC50 value.
Target system: Toll-like receptor 7 (Homo sapiens, UniProt Q9NYK1)
Sequence (Q9NYK1 whole entry): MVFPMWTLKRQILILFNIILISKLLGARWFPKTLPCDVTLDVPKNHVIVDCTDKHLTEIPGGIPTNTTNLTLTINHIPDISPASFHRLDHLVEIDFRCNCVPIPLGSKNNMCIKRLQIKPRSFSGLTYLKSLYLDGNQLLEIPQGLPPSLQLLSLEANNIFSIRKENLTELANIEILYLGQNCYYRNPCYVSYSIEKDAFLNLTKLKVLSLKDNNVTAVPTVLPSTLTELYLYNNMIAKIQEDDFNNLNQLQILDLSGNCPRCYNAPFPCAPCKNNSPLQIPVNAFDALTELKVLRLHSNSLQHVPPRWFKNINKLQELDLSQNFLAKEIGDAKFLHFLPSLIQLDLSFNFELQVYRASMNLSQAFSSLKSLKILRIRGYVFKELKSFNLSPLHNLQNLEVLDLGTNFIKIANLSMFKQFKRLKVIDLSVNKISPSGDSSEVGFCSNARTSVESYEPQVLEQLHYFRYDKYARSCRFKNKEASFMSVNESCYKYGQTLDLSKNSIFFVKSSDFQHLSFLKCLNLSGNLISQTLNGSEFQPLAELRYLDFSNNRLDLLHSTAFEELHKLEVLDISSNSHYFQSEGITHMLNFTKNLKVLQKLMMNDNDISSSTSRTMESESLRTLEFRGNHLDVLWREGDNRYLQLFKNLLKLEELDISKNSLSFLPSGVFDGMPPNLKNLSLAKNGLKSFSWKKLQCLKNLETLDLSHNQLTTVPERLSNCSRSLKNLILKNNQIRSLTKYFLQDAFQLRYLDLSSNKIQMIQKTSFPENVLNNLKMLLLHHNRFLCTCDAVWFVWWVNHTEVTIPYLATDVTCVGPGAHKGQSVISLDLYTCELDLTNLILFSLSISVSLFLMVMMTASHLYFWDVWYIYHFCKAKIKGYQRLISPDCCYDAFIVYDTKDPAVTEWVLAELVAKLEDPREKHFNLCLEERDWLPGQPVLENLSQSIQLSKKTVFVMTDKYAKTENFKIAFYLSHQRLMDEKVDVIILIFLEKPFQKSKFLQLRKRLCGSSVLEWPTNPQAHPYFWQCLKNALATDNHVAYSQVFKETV
Measurement protocol: Agonist activity at TLR7 in human cryopreserved PBMC assessed as induction of IFNalpha production measured after 24 hrs

// worked examples, EC50 included
{"Compound": "CCCCCC[C@](C)(CO)Nc1nc(N)nc2cccnc12", "Assay result": "> 50 µM"}
{"Compound": "CCCC[C@H](CO)Nc1nc(N)nc2ccccc12", "Assay result": "> 50 µM"}
{"Compound": "CCCC[C@H](CCO)Nc1nc(N)nc2cccnc12", "Assay result": "> 50 µM"}
{"Compound": "CCCC[C@](C)(CO)Nc1nc(N)nc2cccnc12", "Assay result": "15 µM"}
{"Compound": "CCC[C@H](CO)Nc1nc(N)nc2cccnc12", "Assay result": "> 50 µM"}
{"Compound": "CCCCC[C@H](CO)Nc1nc(N)nc2cccnc12", "Assay result": "> 20 µM"}

Data point: CCCCC(CO)(CCCC)Nc1nc(N)nc2cccnc12 ; EC50 = > 50 µM

Data point: CCCC[C@@H](Nc1nc(N)nc2cccnc12)C(N)=O ; EC50 = > 50 µM

Data point: CCC[C@](C)(CO)Nc1nc(N)nc2cccnc12 ; EC50 = > 50 µM

Data point: CCC[C@@H](CO)Nc1nc(N)nc2cccnc12 ; EC50 = 2 µM

Data point: CCCC[C@](C)(CO[C@@H]1O[C@H](C(=O)O)[C@@H](O)[C@H](O)[C@H]1O)Nc1nc(N)nc2cc(F)cnc12 ; EC50 = > 50 µM

Data point: CCCCNc1nc(N)nc2cccnc12 ; EC50 = 2.2 µM

Data point: CCCC[C@](C)(CO)Nc1nc(N)nc2cc(C)cnc12 ; EC50 = > 50 µM
